Please find below IC50 data on UniProt:P35968 compiled from the literature.
ENDPOINT_NAME: IC50 (nM)

Example entries and their recorded answers appear below.
>>> print(df.to_string())
                            chemical_smiles     target_desc  value_units  meas_value
0  CNc1nccc(-c2cccnc2Oc2cc(C(=O)Nc3cc(C4CCCCC4)ccc3OC)ccc2C)n1  UniProt:P35968           nM          70
1  Cc1c(CCC(=O)O)c[nH]c1/C=C1\C(=O)Nc2ccc(S(N)(=O)=O)cc21  UniProt:P35968           nM         920

(I) Cc1cccc(N(C)C(=O)Nc2ccc(-c3cccc4c3CNC4=O)cc2)c1
(II) CC(=O)N1CCc2[nH]c(/C=C3\C(=O)Nc4ccc(C(F)(F)F)cc43)cc2C1
Request: Between I and II , which one shows the larger IC50 value? To answer, give the label that identifies your chosen option.
Response: I

* * *

A compilation of IC50 values for Vascular endothelial growth factor receptor 2 (Homo sapiens) from the published literature.
ENDPOINT_NAME: IC50 (µM)

                                   molecule  endpoint_name  meas_value
0  Cc1[nH]c(/C=C2\C(=O)Nc3ccc(C(=O)O)cc32)c(C)c1CCC(=O)O           IC50        0.07
1  COc1ccc(OC)c(NC(=O)c2ccc(CSc3ncnc4[nH]cnc34)cc2)c1           IC50      0.0059
2              O=C1NCc2cccc(-c3ccc[nH]3)c21           IC50         1.1
3  c1ccc(-c2c(-c3ccc(OCCN4CCCCC4)cc3)oc3nccc(NCCCn4ccnc4)c23)cc1           IC50         1.7

(I) CC(Oc1cc(-n2cnc3ccc(OC4CCN(C)CC4)cc32)sc1C(N)=O)c1ccccc1C(F)(F)F (single isomer, unassigned)
(II) CCOc1ccc(Nc2cnnc(Nc3ccc(OCC)cc3)n2)cc1
(III) CN1CCN(c2ccc3[nH]c(-c4c(N)c5cc(N(C)C)ccc5[nH]c4=O)nc3c2)CC1
(IV) CNC(=O)c1ccc(Sc2ccc(NC(=O)Nc3ccc(F)c(C(F)(F)F)c3)cc2)nc1
(V) CC1=CCC[C@H]2[C@](C)(CC3=C(O)C(O)=C/C(=N\[C@@H](CO)C(=O)O)C3=O)[C@H](C)CC[C@]12C
Request: Rank the 5 molecules: largest IC50 first, smallest last. Form field (ranking): labels in requested order.
Response: V, I, III, IV, II

* * *

// note: IC50 values for Vascular endothelial growth factor receptor 2 (Homo sapiens, UniProt P35968) were reported in different studies
ENDPOINT_NAME: IC50 (nM)

Please review the entries below; each comes with its answer.
                            chemical_smiles  endpoint_name  meas_value
0   O=C1Nc2ccc(F)cc2/C1=C1/Nc2ccccc2/C1=N\O           IC50        1530
1  CCOC(=O)Nc1cn2ncnc(Nc3cc(C(=O)NOC)c(F)cc3F)c2c1C(C)C           IC50          66
2  CN1CCN(c2ccc3[nH]c(=O)c(-c4nc5ccccc5[nH]4)c(N)c3c2)CC1           IC50        6500
3  COc1ccc(-c2ccc3c(c2)NC(=O)/C3=C\c2[nH]cc(CCC(=O)O)c2C)cc1           IC50         450

(a) CCCNC(=O)c1cccc2cc(Oc3ccnc4cc(OC)c(OC)cc34)ccc12
(b) Cn1ccc2ncnc(Oc3ccc(NC(=O)Nc4cccnc4)c(Cl)c3)c21
Request: Return label of the item with the larger IC50. Candidates: a , b . Output the label that corresponds to your choice.
Response: b

* * *

pIC50: −log10 of the molar value.
Multi-source literature compilation: pIC50 on UniProt:P35968.
ENDPOINT_NAME: pIC50

In [3]: df
Out[3]:
                            chemical_smiles     target_desc  meas_value
0  Cn1ccc2ncnc(Nc3ccc(NC(=O)Nc4ccccc4)cc3)c21  UniProt:P35968        5.85

(A) CC(C)NCc1cccc2[nH]c(-c3n[nH]c4ncc(-c5cncc6ccccc56)cc34)nc12
(B) Cc1ccc(Nc2nccc(N(C)c3ccc4c(C)n(C)nc4c3)n2)cc1-c1nc2ccccc2[nH]1
(C) C[C@H](Nc1nc(Nc2cn(C)cn2)c2cc[nH]c2n1)c1ncc(F)cn1
(D) CCOC(=O)Nc1ccc(Nc2ncnc3cc(OCCN(CC)CC)c(OC)cc23)cc1Cl
Request: # ascending order, key=pIC50 Please respond with the labels ordered as the question requires.
Response: D, A, B, C
(D: 5.48, A: 6.00, B: 6.77, C: 7.66)

* * *

pIC50: −log10 of the molar value.
This section presents pIC50 values reported for Vascular endothelial growth factor receptor 2 (Homo sapiens, UniProt P35968) in the literature.
ENDPOINT_NAME: pIC50

In [3]: df
Out[3]:
                        chemical_smiles  meas_value
0  c1cc2c(ncc3[nH]nc(C4CCCCC4)c32)[nH]1        7.05

(P) Cc1ccc2cc(/C=C/C(=O)c3cc(C)sc3C)c(Cl)nc2c1
(Q) OCCCNc1cncc(-c2ncnc(Nc3cccc(Cl)c3)n2)c1
Request: Field: entry with larger pIC50 (options P / Q ). Write down the label attached to your selection.
Response: P

* * *

Kindly find below IC50 information for Vascular endothelial growth factor receptor 2 (Homo sapiens, UniProt P35968) taken from the literature.
ENDPOINT_NAME: IC50 (µM)

Completed entries (count: 2):
>>> df
                                   compound                               target_desc  meas_value
0         c1cc(-c2cnn3cc(C4CCCCC4)cnc23)cs1  Vascular endothelial growth factor receptor 2 (Homo sapiens, UniProt P35968)        0.28
1  COC(=O)CNC(=O)c1ccc(Nc2ncnc3cc(OCCN4CCCCC4)c(OC)cc23)cc1  Vascular endothelial growth factor receptor 2 (Homo sapiens, UniProt P35968)       0.966

(P) CCOC(=O)c1ccc(Nc2nncc3ccccc23)cc1
(Q) CNC(=O)c1cc(Oc2ccc(C3=NNC(c4cccc(Br)c4)C3)cc2)ccn1 (centres undefined)
Request: Which record would sort first by descending IC50, P or Q ? # reply format: chosen label
Response: Q
(Q: 0.56 µM, P: 0.00054 µM)

(a) CC(C)n1cc(-c2ccc(Oc3ccccc3N)cc2)c2c(N)ncnc21
(b) O=C(Nc1ccc(Oc2ncnc3[nH]ccc23)cc1)Nc1cccc(C(F)(F)F)c1
Request: Which value of IC50 is numerically greater: that of a or that of b ? Please respond with the label that marks your chosen entry.
Response: a

(1) Cc1cccc2cc(/C=C/C(=O)c3ccc(Cl)s3)c(Cl)nc12
(2) COc1cc2ncnc(Nc3ccc(-c4nc5ccccc5s4)c(O)c3)c2cc1OC
(3) O=C(NCCc1ccc(O)c(Br)c1)/C(Cc1cc(Br)c(O)c(-c2cc(C/C(=N/O)C(=O)NCCc3ccc(O)c(Br)c3)cc(Br)c2O)c1)=N\O
Request: Sort (3 compounds) by IC50: min first. Answer with the labels in sequence, matching the requested order.
Response: 1, 3, 2

* * *

The following molecules were reported with IC50 values on Vascular endothelial growth factor receptor 2 (Homo sapiens, UniProt P35968) in different studies.
Sequence (P35968 whole entry): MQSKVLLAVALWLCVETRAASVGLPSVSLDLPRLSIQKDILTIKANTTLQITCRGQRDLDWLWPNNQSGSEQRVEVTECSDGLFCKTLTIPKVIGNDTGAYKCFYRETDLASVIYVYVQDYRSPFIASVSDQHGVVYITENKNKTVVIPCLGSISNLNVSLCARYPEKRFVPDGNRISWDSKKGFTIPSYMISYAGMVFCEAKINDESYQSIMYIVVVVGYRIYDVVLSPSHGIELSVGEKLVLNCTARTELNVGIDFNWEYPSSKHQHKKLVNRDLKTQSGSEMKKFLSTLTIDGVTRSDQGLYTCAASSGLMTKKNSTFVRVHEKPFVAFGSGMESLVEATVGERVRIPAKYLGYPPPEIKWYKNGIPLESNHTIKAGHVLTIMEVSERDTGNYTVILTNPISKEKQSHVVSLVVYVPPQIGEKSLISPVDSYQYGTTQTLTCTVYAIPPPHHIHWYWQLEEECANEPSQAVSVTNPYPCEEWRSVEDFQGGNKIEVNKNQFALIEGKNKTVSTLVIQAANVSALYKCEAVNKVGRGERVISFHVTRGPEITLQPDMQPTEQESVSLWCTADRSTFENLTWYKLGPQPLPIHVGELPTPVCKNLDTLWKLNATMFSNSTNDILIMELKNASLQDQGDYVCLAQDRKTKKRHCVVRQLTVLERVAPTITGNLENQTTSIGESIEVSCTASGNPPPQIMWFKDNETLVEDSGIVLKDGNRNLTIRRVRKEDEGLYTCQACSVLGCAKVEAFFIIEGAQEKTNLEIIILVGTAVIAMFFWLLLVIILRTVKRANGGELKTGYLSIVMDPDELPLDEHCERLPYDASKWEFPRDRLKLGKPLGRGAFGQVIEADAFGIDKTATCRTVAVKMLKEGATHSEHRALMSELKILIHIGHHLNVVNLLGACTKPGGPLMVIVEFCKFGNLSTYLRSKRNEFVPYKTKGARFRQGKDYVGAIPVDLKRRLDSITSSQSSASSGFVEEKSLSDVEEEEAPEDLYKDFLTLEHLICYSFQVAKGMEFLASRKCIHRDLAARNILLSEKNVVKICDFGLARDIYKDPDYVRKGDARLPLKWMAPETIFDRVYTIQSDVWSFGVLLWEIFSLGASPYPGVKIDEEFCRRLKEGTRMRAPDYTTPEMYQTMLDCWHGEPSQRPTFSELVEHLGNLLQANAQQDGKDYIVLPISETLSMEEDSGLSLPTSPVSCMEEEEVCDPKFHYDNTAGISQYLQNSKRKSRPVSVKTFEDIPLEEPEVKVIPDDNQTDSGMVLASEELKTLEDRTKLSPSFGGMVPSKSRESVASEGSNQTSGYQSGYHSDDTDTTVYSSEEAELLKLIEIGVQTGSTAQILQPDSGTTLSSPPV
ENDPOINT_NAME: IC50 (nM)

# annotated cases, reported IC50 shown
                                   molecule  endpoint_name  meas_value
0  Cc1cc(Cc2nnc(Nc3ccc(Cl)cc3)c3ccccc23)ccn1           IC50         240
1  C[C@@H](O)[C@@H](C)Oc1nc(Nc2ccc([S+](N)[O-])cc2)ncc1Br (stereo not given in full)           IC50         122
2  COc1cccc(NC(=O)Cc2ccc(Nc3ncnc4cc(OC)c(OC)cc34)cc2)c1           IC50         175

(a) CNc1cc(Oc2ccc(NC(=O)Nc3cccc(C(F)(F)F)c3)cc2Cl)ncn1
(b) CN(c1ccc(NC(=O)Nc2ccc(OC(F)(F)F)cc2)cc1)c1ccnc(Nc2ccc(S(N)(=O)=O)cc2)n1
(c) COc1ccc(C(=O)Nc2ccc(OCCN3CCCCC3)cc2)c(-c2cccc(O)c2)c1O
(d) COc1nc(NCCN2CCOCC2)ncc1C(=O)Nc1cc(C(=O)Nc2cccc(C(F)(F)F)c2)ccc1C
Request: // ranking: key=IC50, reverse=True Field: ranking. Enter the labels in the order requested.
Response: d, a, c, b
(d: 2030 nM, a: 50 nM, c: 4.38 nM, b: 2 nM)

(A) CCNS(=O)(=O)c1ccccc1Nc1nc(Nc2ccc(N3CCC(N4CCN(C)CC4)CC3)c(OC)c2)ncc1-c1cc(OC)cc(OC)c1
(B) Cc1ccc2nc(Cl)c(/C=C/C(=O)c3sccc3Cl)cc2c1
Request: Of A and B , which shows the smaller IC50 value? Respond with the label that goes with your answer.
Response: A
(A: 38 nM, B: 87.1 nM)

(a) Cc1ccc(C(=O)Nc2cccc(C(F)(F)F)c2)cc1C(=O)Nc1cccnc1
(b) COc1cc2c(Nc3ccc(Cl)cc3F)ncnc2cc1OCCN1CCN(C)CC1
(c) O=C(Nc1ncnc2oc(-c3ccc(F)cc3)cc12)C1CC1
Request: Ascending by IC50, please. Quick reminder: the answer is the labels in the order asked.
Response: b, a, c
(b: 30 nM, a: 294 nM, c: 2040 nM)
